Biological target: T1, QM1 Rad9A 1-266 (Homo sapiens, UniProt Q99638 1-266, K11A;K15A;R22A;K78A)
T1 sequence: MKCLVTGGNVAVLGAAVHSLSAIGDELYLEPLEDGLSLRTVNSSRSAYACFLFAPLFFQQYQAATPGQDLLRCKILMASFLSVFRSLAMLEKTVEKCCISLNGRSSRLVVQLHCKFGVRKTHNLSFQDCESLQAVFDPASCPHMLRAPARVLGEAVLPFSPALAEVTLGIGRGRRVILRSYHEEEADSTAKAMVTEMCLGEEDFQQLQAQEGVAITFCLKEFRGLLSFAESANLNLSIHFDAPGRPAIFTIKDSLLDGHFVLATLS
Assay: EMSA; EMSA: 20 mM Tris-HCl pH 7.6, 80 mM NaCl, 1 mM DTT, 1 mM EDTA, 1.5% glycerol, 200 ng/ml poly dI/dC, 50 ug/ml BSA, 10 nM DNA; 6% native PAGE in 50 mM Tris-borate
Conditions: protein: recombinant; tags: His; label: 5'-fluorescein (6-carboxyfluorescein) on HC40; blunt
Reported endpoint: pKd
Formally, pKd is defined as -log10 of the concentration c, with c in mol/L.

## Input Entry HC40/HG40 (dsDNA) DNA 1: CCGAGGAATTCGCCTTCTGCTCCATAGCCACTGGTTGTAG DNA 2: CTACAACCAGTGGCTATGGAGCAGAAGGCGAATTCCTCGG : reported pKd = ?
## Output 5.75

Just for reference, paper PMC9359528 is where these values come from.
